Catalogue of logD values
# EXPERIMENT: Distribution coefficient, log D at pH 7.4
# Type: physicochemical
# CONDITION PARAMETERS: octanol/water
Write the value as a bare number.

O=C(NO)/C(=C\c1ccccc1)C(=O)NCc1ccc(F)cc1 :: 1.1

Data request: Give the reported logD for this compound. O=C(NO)C(Cc1ccccc1)C(=O)NCc1ccc(F)cc1 (configuration not stated)
Data returned: 1.2

====

# SYSTEM UNDER TEST: Aminopeptidase N (Plasmodium falciparum FcB1/Columbia) (UniProt O96935)
# Sequence (whole entry): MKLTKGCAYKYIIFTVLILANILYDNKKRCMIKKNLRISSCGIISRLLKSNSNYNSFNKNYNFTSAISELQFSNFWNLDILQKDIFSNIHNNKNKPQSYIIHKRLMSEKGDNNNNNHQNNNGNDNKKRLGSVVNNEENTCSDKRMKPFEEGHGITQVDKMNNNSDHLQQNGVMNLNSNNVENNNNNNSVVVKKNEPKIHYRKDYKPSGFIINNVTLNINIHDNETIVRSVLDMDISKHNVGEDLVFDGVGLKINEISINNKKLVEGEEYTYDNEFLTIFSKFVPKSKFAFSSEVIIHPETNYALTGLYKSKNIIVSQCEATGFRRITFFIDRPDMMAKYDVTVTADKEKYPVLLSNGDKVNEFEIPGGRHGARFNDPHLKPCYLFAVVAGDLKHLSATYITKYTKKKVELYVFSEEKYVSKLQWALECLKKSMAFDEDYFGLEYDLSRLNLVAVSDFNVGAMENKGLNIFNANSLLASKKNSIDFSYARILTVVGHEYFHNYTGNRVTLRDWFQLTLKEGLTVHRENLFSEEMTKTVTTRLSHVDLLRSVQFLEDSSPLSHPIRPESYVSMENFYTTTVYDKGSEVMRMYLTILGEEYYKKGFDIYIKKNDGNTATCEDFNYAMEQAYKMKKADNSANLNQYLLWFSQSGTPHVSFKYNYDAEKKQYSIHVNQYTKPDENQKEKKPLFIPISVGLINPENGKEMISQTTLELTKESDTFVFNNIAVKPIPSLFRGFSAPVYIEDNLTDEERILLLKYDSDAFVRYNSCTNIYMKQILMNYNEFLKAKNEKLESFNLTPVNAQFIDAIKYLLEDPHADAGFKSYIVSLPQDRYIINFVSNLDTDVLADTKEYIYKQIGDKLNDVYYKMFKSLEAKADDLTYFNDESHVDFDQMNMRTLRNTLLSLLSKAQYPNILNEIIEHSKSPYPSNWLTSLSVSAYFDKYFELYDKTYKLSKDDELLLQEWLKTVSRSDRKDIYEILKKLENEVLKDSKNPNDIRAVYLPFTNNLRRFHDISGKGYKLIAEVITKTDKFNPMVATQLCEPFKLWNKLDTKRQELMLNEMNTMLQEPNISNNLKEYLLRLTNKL
# EXPERIMENT: Inhibition of Plasmodium falciparum FcB1 M1 aminopeptidase at 10 uM
inhibition for assorted compounds
The reply should be a number in %, with the unit left off.

O=C(NO)C(Cc1cccc(Oc2ccccc2)c1)C(=O)N(CCc1ccccc1)Cc1ccccc1 (configuration not stated) :: 38
NC(C(=O)NO)C(=O)N1CCN(c2ccccc2)CC1 (configuration not stated) :: -2
O=C(CC(=O)NCc1ccc(F)cc1)NO :: 6
CC(C)CN(CCCCc1ccccc1)C(=O)C(Cc1ccccc1)C(=O)NO (configuration not stated) :: 45
Cc1ccccc1CNC(=O)C(N)C(=O)NO (configuration not stated) :: 9

Let us move to another entry and its inhibition.
Data request: For CC(C)CC(C(=O)NO)C(=O)N1CCN(Cc2ccccc2)CC1 (configuration not stated) , write its inhibition.
Data returned: 29
